Form field: IC50 (one value per entry).
- System: A549
- TEST_SUMMARY: MTT antiproliferation assay, A549
- Format: cell-based
- SETUP_CONDITIONS: Homo sapiens, 48 h, n = 3, read-out: IC50 ± SD A549
Note: unit µM is implicit; provide only the numeric part.

Some solved cases for reference:
Cc1ccc(C2=NN(c3ccc(S(N)(=O)=O)cc3)C(c3ccc4c(c3)OCCO4)C2)cc1C (centres unmarked): 5.86
CCOc1ccc(C2=NN(c3ccc(S(N)(=O)=O)cc3)C(c3ccc4c(c3)OCO4)C2)cc1 (centres unmarked): 6.93

Bench note: what IC50 did NS(=O)(=O)c1ccc(N2N=C(c3ccccc3)CC2c2ccc3c(c2)OCCO3)cc1 (centres unmarked) show?
5.92

Bench note: what IC50 did NS(=O)(=O)c1ccc(N2N=C(c3ccccc3)CC2c2ccc3c(c2)OCO3)cc1 (centres unmarked) show?
3.54

Bench note: what IC50 did NS(=O)(=O)c1ccc(N2N=C(c3ccc(I)cc3)CC2c2ccc3c(c2)OCO3)cc1 (centres unmarked) show?
2.86

Bench note: what IC50 did COc1cccc(C2=NN(c3ccc(S(N)(=O)=O)cc3)C(c3ccc4c(c3)OCO4)C2)c1 (centres unmarked) show?
9.42

Bench note: what IC50 did NS(=O)(=O)c1ccc(N2N=C(c3ccc(I)cc3)CC2c2ccc3c(c2)OCCO3)cc1 (centres unmarked) show?
3.12

Bench note: what IC50 did Cc1cc(C2=NN(c3ccc(S(N)(=O)=O)cc3)C(c3ccc4c(c3)OCCO4)C2)ccc1F (centres unmarked) show?
4.26

====

- Tested on: A549
- TEST_SUMMARY: MTT antiproliferation assay, A549
- Type: cell-based
- SETUP_CONDITIONS: Homo sapiens, 48 h, n = 3, read-out: IC50 ± SD A549
ASSAY_METRIC: IC50

Cc1ccc(C2=NN(c3ccc(S(N)(=O)=O)cc3)C(c3ccc4c(c3)OCO4)C2)cc1C (centres unmarked): 5.49 µM
COc1cccc(C2=NN(c3ccc(S(N)(=O)=O)cc3)C(c3ccc4c(c3)OCCO4)C2)c1 (centres unmarked): 7.81 µM
NS(=O)(=O)c1ccc(N2N=C(c3cc(F)cc(F)c3)CC2c2ccc3c(c2)OCCO3)cc1 (centres unmarked): 4.34 µM
NS(=O)(=O)c1ccc(N2N=C(c3ccccc3F)CC2c2ccc3c(c2)OCCO3)cc1 (centres unmarked): 7.83 µM
NS(=O)(=O)c1ccc(N2N=C(c3cccc(F)c3)CC2c2ccc3c(c2)OCO3)cc1 (centres unmarked): 3.26 µM
COc1ccc(C2=NN(c3ccc(S(N)(=O)=O)cc3)C(c3ccc4c(c3)OCCO4)C2)cc1 (centres unmarked): 4.54 µM

Bench note: what IC50 did NS(=O)(=O)c1ccc(N2N=C(c3cccc(F)c3)CC2c2ccc3c(c2)OCCO3)cc1 (centres unmarked) show?
6.47 µM

Bench note: what IC50 did Cc1ccc(C2=NN(c3ccc(S(N)(=O)=O)cc3)C(c3ccc4c(c3)OCCO4)C2)cc1 (centres unmarked) show?
2.58 µM

====

- TARGET_SYSTEM: COX-2 (Homo sapiens, UniProt P35354)
- Construct: purchased Cayman Chemical 701180
- Sequence (P35354 18-604): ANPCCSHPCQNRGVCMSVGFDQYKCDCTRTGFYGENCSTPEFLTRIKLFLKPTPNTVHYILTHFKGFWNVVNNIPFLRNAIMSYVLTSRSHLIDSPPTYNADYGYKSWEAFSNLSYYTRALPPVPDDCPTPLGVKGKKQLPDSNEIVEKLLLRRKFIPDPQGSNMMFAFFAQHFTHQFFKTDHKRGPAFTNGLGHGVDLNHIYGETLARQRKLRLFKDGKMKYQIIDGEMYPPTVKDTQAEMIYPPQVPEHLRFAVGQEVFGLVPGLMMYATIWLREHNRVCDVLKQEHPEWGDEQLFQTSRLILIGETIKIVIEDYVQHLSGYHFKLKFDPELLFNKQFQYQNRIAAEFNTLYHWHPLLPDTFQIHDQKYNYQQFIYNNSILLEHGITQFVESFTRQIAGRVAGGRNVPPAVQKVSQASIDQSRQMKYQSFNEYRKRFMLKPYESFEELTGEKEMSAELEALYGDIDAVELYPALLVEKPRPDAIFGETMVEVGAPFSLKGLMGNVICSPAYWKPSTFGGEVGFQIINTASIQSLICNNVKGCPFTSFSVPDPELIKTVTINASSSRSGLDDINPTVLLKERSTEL
- TEST_SUMMARY: COX-2 inhibition assay (COX-2 ELISA kit)
- Format: biochemical
- SETUP_CONDITIONS: in vitro COX-2 selectivity index
Form field: Selectivity Index (SI) (COX-1 IC50/COX-2 IC50) (one value per entry).

Cc1cc(C2=NN(c3ccc(S(N)(=O)=O)cc3)C(c3ccc4c(c3)OCCO4)C2)ccc1F (stereo not drawn) [Compound 4t]: >40.54

Now look at this entry.
Bench note: what Selectivity Index (SI) (COX-1 IC50/COX-2 IC50) did Cc1ccc(C2=NN(c3ccc(S(N)(=O)=O)cc3)C(c3ccc4c(c3)OCCO4)C2)cc1C (stereo not drawn) [Compound 4s] show?
>33.33

Values were extracted from paper PMC6539903.
